Values compiled from patent US20230263822A1.

# ASSAY_SUMMARY: Tolerability in CD1 mice: liver function (Example 43)
# Assay type: in vivo
# EXPERIMENTAL_SETUP: 50 mg/kg s.c. twice per week for 6 weeks, plasma
Strand notation (5' to 3'): a small letter for the sugar, then the base; units joined by * are phosphorothioate-linked, units joined directly phosphodiester-linked; [ ] holds rarer units or linkages, { } end groups; capitals alone tell only the bases. e = 2'-O-(2-methoxyethyl) (MOE); [5mC] = 5-methylcytosine; d = 2'-deoxy (DNA)
Criterion: ALT meeting or surpassing 50 IU/L. Met: 1. Not met: 0.

Here are 4 substances together with their reported answers.
ISIS 449707: 3-8-3, 4-8-4, 2-10-2, 3-10-3 or 4-10-4 MOE microwalk gapmer (Table 46) (antisense e[5mC]*eA*e[5mC]*eA*dG*dT*dT*dT*d[5mC]*dT*dG*dG*e[5mC]*eA*eG*eG) ... 0
ISIS 449709: 3-8-3, 4-8-4, 2-10-2, 3-10-3 or 4-10-4 MOE microwalk gapmer (Table 46) (antisense eG*e[5mC]*eA*e[5mC]*dA*dG*dT*dT*dT*d[5mC]*dT*dG*dG*d[5mC]*eA*eG*eG*e[5mC]) ... 1
ISIS 449708: 3-8-3, 4-8-4, 2-10-2, 3-10-3 or 4-10-4 MOE microwalk gapmer (Table 46) (antisense eA*e[5mC]*eA*dG*dT*dT*dT*d[5mC]*dT*dG*dG*e[5mC]*eA*eG) ... 1
ISIS 449710: 3-8-3, 4-8-4, 2-10-2, 3-10-3 or 4-10-4 MOE microwalk gapmer (Table 46) (antisense e[5mC]*eA*e[5mC]*dA*dG*dT*dT*dT*d[5mC]*dT*dG*dG*d[5mC]*eA*eG*eG) ... 0

Now examine the next entry.
Ask | Could you please find out whether ISIS 449711: 3-8-3, 4-8-4, 2-10-2, 3-10-3 or 4-10-4 MOE microwalk gapmer (Table 46) (antisense eA*e[5mC]*dA*dG*dT*dT*dT*d[5mC]*dT*dG*dG*d[5mC]*eA*eG) has ALT that meets 50 IU/L or exceeds it?
Reply | 1
